# key: entry, value: Signal-to-noise ratio
Tested on: PCT
Measurement Protocol: Luciferase dual-antibody complementary activation assay for PCT detection, clone supernatants, retest with CTZ-h (Example 1)
Assay type: biochemical, human
Test Conditions: RLU antigen+/RLU antigen-; MBP-PCT 3.3 ng/ml; CTZ-h
// print number alone

A selection of reference data follows.
> print(dat)
                 chain  result.number
1  VEGYRLFEKVW [RB172]           36.9
2  VEGYRLFDKKW [RB239]           67.7
3  VEGYRLFERKW [RB035]           31.6
4  VEGYRLFNKEW [RB284]           12.2
5  VEGYRLFERIW [RB240]           35.3

Problem: Identify measured Signal-to-noise ratio associated with VTGYRLFEEIL [P114, reference compound]
Result: 12.2

Problem: Provide only the value of recorded Signal-to-noise ratio for VEGYRLFERKS [RB097]
Result: 21

Problem: Answer with the recorded Signal-to-noise ratio of VEGYRLFNKKS [RB054] only.
Result: 25.7

----------
Tested on: PCT
Measurement Protocol: Luciferase dual-antibody complementary activation assay for PCT detection, clone supernatants, retest with CTZ-h (Example 1)
Assay type: biochemical, human
Test Conditions: RLU antigen+/RLU antigen-; MBP-PCT 3.3 ng/ml; CTZ-h
// Signal-to-noise ratio lookup, one value per entry

Solved entries (count: 5):
> print(dat)
                 chain  result
1  VEGYRLFDRKS [RB073]      48
2  VDGWRLHEKIS [RA141]    65.1
3  VEGYRLFDRKL [RB135]    43.7
4  VEGYRLFNEKS [RB195]    30.8
5  VEGYRLFERIW [RB113]    31.3

Problem: Complete the entry with Signal-to-noise ratio for VEGYRLFNRVS [RB027]
Result: 22.6

Problem: Quickly give me recorded Signal-to-noise ratio for VEGYRLFERVL [RB150]
Result: 32.1

Problem: State its Signal-to-noise ratio for this sequence: VEGYRLFEKKL [RB149]
Result: 21

Problem: Assign Signal-to-noise ratio to the following record: VEGYRLFNRVG [RB122]
Result: 20.2

Problem: Look up and report measured Signal-to-noise ratio for this entry: VEGYRLFNRKW [RB223]
Result: 34.7

Problem: Return the recorded Signal-to-noise ratio value; entry: VEGYRLFDRKL [RB212]
Result: 33.6

Problem: Provide one value: measured Signal-to-noise ratio of VEGYRLFERKL [RB157]
Result: 25.2

Problem: Please indicate Signal-to-noise ratio recorded for VEGYRLFNRKS [RB252]
Result: 20.3

Problem: Assign Signal-to-noise ratio to the following record: VEGYRLFERKS [RB033]
Result: 25.7

Problem: Give the value of Signal-to-noise ratio reported for the following: VEGYRLFDRKL [RB209]
Result: 33.6

Problem: State its Signal-to-noise ratio for this sequence: VEGYRLFERKW [RB276]
Result: 35

----------
System: PCT
Measurement Protocol: Second library screening for PCT detection, clone supernatants, retest with CTZ-h (Example 4)
Format: biochemical, human
Test Conditions: luminescence signal value with MBP-PCT 3.3 ng/ml; large subunit-rSCFV5 12.5 nM; CTZ-h 25 µM, 60 s
The reader will find reported PCT+ values listed item by item below.
The response must contain the number and no unit.

Take a look at these entries with their results.
> print(dat)
                  chain  property  result.number
1  VSGYRLFDKKW [RC-099]      PCT+           8149
2  VSGYRIFDKKS [RC-044]      PCT+          10392
3  VSGYRLFDRKS [RC-098]      PCT+           8666
4  VEGYRLFERKS [RC-145]      PCT+           8198
5  VEGYRLFDKVS [RC-215]      PCT+           5972
6  VEGYRLFERKS [RC-105]      PCT+          14534
7  VEGYRLFDKVS [RC-247]      PCT+           4398
8  VSGYRLFDRKW [RC-033]      PCT+           8509

Problem: Query PCT+ for VSGYRIFEKKS [RC-129]
Result: 12040

Problem: Provide PCT+ value for the following sequence: VEGYRLFEKIS [RC-082]
Result: 12852

Problem: State its PCT+ for this sequence: VSGYRLFDKVS [RC-208]
Result: 12303

Problem: Please look at this sequence and report its PCT+: VSGYRLFDKKS [RC-187]
Result: 11049

Problem: Consider the sequence VEGYRLFDKVS [RC-087] and give its recorded PCT+.
Result: 6923

Problem: Give the value of PCT+ reported for the following: VSGYRLFDRKS [RC-018]
Result: 13188

Problem: Specify measured PCT+ for VSGYRIFEKKW [RC-113] .
Result: 6207

Problem: Complete the entry with PCT+ for VEGYRLFDRKS [RC-218]
Result: 7242
